ASSAY_SYSTEM: human CD40 on cells (human, UniProt P25942 21-277)
Sequence (P25942 21-277 limits assumed): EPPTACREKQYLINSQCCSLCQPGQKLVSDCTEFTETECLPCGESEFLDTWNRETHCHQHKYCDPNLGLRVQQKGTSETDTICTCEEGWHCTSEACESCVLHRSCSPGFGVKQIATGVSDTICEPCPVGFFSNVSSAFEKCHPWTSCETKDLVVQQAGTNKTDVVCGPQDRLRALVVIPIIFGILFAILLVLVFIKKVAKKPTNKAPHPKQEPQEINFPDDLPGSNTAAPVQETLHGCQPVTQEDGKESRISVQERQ
ASSAY_OVERVIEW: cell-based or functional assay
# Lookup of reported Maximal activation (OD655) in HEK293 blue CD40 NFκB reporter cells keyed by entry
Dear colleague, please return just the value in OD655, with no unit written.

BINDER	EXPERIMENTAL_VALUE
Humanized muAb9 #3 (antibody, V domains shown) VH: EVQLQESGPGLVKPSETLSLTCTVSGYSISSNYYWNWIRQPPGKGLEWMGYIRYDGSNNYNPSLKSRVTISRDTSKNQFSLKLSSVTAADTAVYYCARLDYWGQGTTVTVSS VL: DAVMTQTPLSLSVTPGQPASISCRSSQSLENTNGNTFLNWFLQKPGQSPQLLIYRVSNRFSGVPDRFSGSGSGTDFTLKISRVEAEDVGVYFCLQVTHVPFTFGQGTKLEIK	0.27

Data request: Indicate its recorded Maximal activation (OD655) in HEK293 blue CD40 NFκB reporter cells; the binder in question is Humanized muAb9 #1 (antibody, V domains shown) VH: EVQLQESGPGLVKPSETLSLTCTVSGYSITSNYYWNWIRQPPGKGLEWMGYIRYDGSNNYNPSLKNRITISRDTSKNQFSLKLSSVTAADTAVYYCARLDYWGQGTTVTVSS VL: DAVMTQTPLSLSVTPGQPASISCRSSQSLENTNGNTFLNWFLQKPGQSPQLLIYRVSNRFSGVPDRFSGSGSGTDFTLKISRVEAEDVGVYFCLQVTHVPFTFGQGTKLEIK
Data returned: 0.26
